From: PubChem BioAssay AID1159580

# protocol notes: chemical genetic growth profiling, strain panel (AID 1159580);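 note: tested at 20 µM; growth read once vehicle control cultures reached saturation at 30 °C; 1 = growth at the plate median or of vehicle wells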
# cond: S. cerevisiae deletion strains, growth OD, locus YDL134C, strain PPH21, hits give low values
Screen size: about 5,500 compounds; about 2,000 (36%) were called active. Not shown: some 18% with an inconclusive outcome. The list shows a part of the results.
measurement kind: normalized growth
# output: bare number, no unit

The cases that follow already have their normalized growth on record.
Nc1cc2c(cc1Cl)C(=O)NC2=O
1.02
COC(=O)[C@@H]1OC(=O)[C@H]2O[C@@]23[C@@]1(C)CCC1[C@@]2(C)CCC(=O)C(C)(C)C2C[C@@H](OC(C)=O)[C@]13C (some centres undefined)
1.01
COc1ccc2c(c1O)OCC1c3cc4c(cc3OC21)OCO4 (centres undefined)
0.986
COc1cc2c(cc1OC)C1Cc3ccc(OC)c(OC)c3CN1CC2 (centres undefined)
1.03
O=C(O)CN(CC(=O)O)Cc1cc2c(-c3ccccc3C(=O)O)c3cc(CN(CC(=O)O)CC(=O)O)c(=O)cc-3oc2cc1O
1.01
CC(=O)CC(=O)Nc1ccccc1Cl
0.998
NC(N)=NS(=O)(=O)c1ccc(N)cc1
1.01
c1ccc(-c2cc3c(nn2)CCc2nonc2-3)cc1
0.985
CC1(C)C2CC(=O)[C@]3(C)C(CC[C@@]4(C)[C@H](c5ccoc5)OC(=O)[C@H]5O[C@]543)[C@@]2(C)C=C[C@@H]1O (some centres undefined)
0.982
N#Cc1c(F)cccc1Oc1ccc(F)cc1
0.986

// normalized growth lookup, compound = `Cc1cc(NC(=O)C2=C(O)c3ccccc3S(=O)(=O)N2C)no1` , result: 0.995

----------
Each item that follows carries a reported normalized growth.
# protocol notes: chemical genetic growth profiling, strain panel (AID 1159580)
# cond: S. cerevisiae deletion strains, growth OD, locus YDL035C, strain GPR1, hits give low values
Out of some 5,500 compounds screened, about 2,000 (36%) were called active. Inconclusive results (about 18%) are left out. The list shows a part of the results.
Write the value as a bare number.

Examples from the recorded data:
CC(C)C(C)/C=C/C(C)C1CCC2C3=CC=C4CC(O)CCC4(C)C3CCC21C (stereo unspecified)
0.943
C=C1CCC2C(CC2(C)C)C(=C)CC/C1=N\O (stereo unspecified)
0.87
COC(=O)[C@@H]1OC(=O)[C@H]2O[C@@]23[C@@]1(C)CCC1[C@@]2(C)CCC(=O)C(C)(C)C2C[C@@H](OC(C)=O)[C@]13C (stereo partly specified)
0.998
O=C(Cn1ccnc1[N+](=O)[O-])NCCO
1.02
CC1(C)C2CC(=O)[C@]3(C)C(CC[C@@]4(C)[C@H](c5ccoc5)OC(=O)[C@H]5O[C@]543)[C@@]2(C)C=C[C@@H]1O (stereo partly specified)
1.02

// sample COc1cc2c(cc1OC)C1Cc3ccc(OC)c(OC)c3CN1CC2 (stereo unspecified) , its normalized growth was 1

Measured normalized growth of `Cc1cc(-c2ccccc2)nnc1NCCN1CCOCC1` : 1.03

The molecule listed as `Cc1cc(NC(=O)C2=C(O)c3ccccc3S(=O)(=O)N2C)no1` shows normalized growth equal to 0.981

Noted for NC(CO)C(=O)NNCc1ccc(O)c(O)c1O (stereo unspecified) : its normalized growth reads 1.02

The value of normalized growth measured for the molecule CC(=O)OC1CCC2(C)C(=CC=C3C2CCC2(C)C3CCC2C(C)/C=C/C(C)C(C)C)C1(C)C (stereo unspecified) turned out to be 1.03

Record `CCCCN(CCCC)CCCOC(=O)c1ccc(N)cc1` , field normalized growth: 0.998

Item: `O=C(O)CN(CC(=O)O)Cc1cc2c(-c3ccccc3C(=O)O)c3cc(CN(CC(=O)O)CC(=O)O)c(=O)cc-3oc2cc1O` | normalized growth: 0.997

// normalized growth value for C[N+]1(C)C2CC(OC(=O)[C@@H](CO)c3ccccc3)CC1C1OC12 (stereo partly specified) : 1.02

Form: molecule = `CCC(C)(C)C(=O)O[C@H]1C[C@@H](C)C=C2C=C[C@H](C)[C@H](CC[C@@H]3C[C@@H](O)CC(=O)O3)[C@H]21` ; normalized growth = 0.97

normalized growth reading for NS(=O)(=O)c1cc2c(cc1Cl)NC(C(Cl)Cl)NS2(=O)=O (stereo unspecified) : 0.991

----------
# protocol notes: chemical genetic growth profiling, strain panel (AID 1159580);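 note: tested at 20 µM; growth read once vehicle control cultures reached saturation at 30 °C; 1 = growth at the plate median or of vehicle wells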
# cond: S. cerevisiae deletion strains, growth OD, locus YPL204W, strain HRR25, hits give low values
The campaign covered roughly 5,500 compounds. About 2,000 (36%) were called active. Not shown: some 18% with an inconclusive outcome. Some of the results follow.
Labelling field: enter MET if recorded normalized growth is less than 0.9. Enter NOT MET if it equals or exceeds that cut-off.

CCCCCCCCCCCC(=O)NOC(=O)c1c(-c2c(Cl)cccc2Cl)noc1C
MET

I'd appreciate it if you could check whether `O=C(Nc1ccc(OC(F)(F)F)cc1)N1CCN(c2nc(-c3ccccc3)ns2)CC1` has normalized growth smaller than 0.9. NOT MET

In the record for `CC(C)(C)c1ccc(C(=O)NNc2c(Cl)cccc2Cl)cc1` , is normalized growth less than 0.9? NOT MET

Strictly below 0.9 in normalized growth? `S=c1[nH]nc(Nc2ccc(I)cc2)s1` MET

Hello, is normalized growth of the following molecule strictly smaller than 0.9? `Cc1c(C(=O)N(Cc2ccccc2)Cc2cccs2)cnn1-c1ccc(Cl)cc1` NOT MET

Does the reported normalized growth of `Cc1onc(-c2c(F)cccc2Cl)c1C(=O)ON=C1C2CC3CC(C2)CC1C3` stay below 0.9? NOT MET

Please let me know if `Cc1onc(-c2c(Cl)cccc2Cl)c1C(=O)NC(C)(C)CC(C)(C)C` shows normalized growth below 0.9. NOT MET

Quick check: does `FC(F)(F)c1cccc(-n2c(CSCc3cccc4ccccc34)n[nH]c2=S)c1` have normalized growth under 0.9? NOT MET

Determine whether this molecule shows normalized growth lower than 0.9 (ties excluded): `O=c1c2ccccc2[nH]c(=S)n1-c1cccc(C(F)(F)F)c1` MET

Record `Cc1onc(-c2c(Cl)cccc2Cl)c1C(=O)NNc1c(Cl)cccc1Cl` : is its normalized growth strictly below 0.9? NOT MET

----------
# protocol notes: chemical genetic growth profiling, strain panel (AID 1159580);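 note: tested at 20 µM; growth read once vehicle control cultures reached saturation at 30 °C; 1 = growth at the plate median or of vehicle wells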
# cond: S. cerevisiae deletion strains, growth OD, locus YOR106W, strain vam3, hits give low values
Hit rate of the full screen: of about 5,500 compounds, about 2,000 (36%) were called active. Inconclusive results (about 18%) are left out. The list shows a part of the results.
measurement kind: normalized growth

Sample answers from the record:
C=C1CCC(C2CC(=O)OC2=O)C(=O)CCC2C1CC2(C)C (stereo not given)
1.02 (inactive)
CC[C@H](C)C(=O)O[C@H]1CCC=C2C=C[C@H](C)C(CCC3C[C@@H](O)CC(=O)O3)[C@H]21 (stereo not given in full)
1.04 (inactive)
C=C1CCC(OC(C)=O)/C(C)=C/C[C@@H]2[C@@H]1CC2(C)C (stereo not given in full)
0.994 (inactive)

Kindly note the recorded normalized growth for CCC(C)C(=O)O[C@H]1C[C@H](O)C=C2C=C[C@H](C)[C@H](CC[C@@H](O)C[C@@H](O)CC(=O)O)C21 (stereo not given in full) , which is 1.04 (inactive)

The compound listed as `CCN(CC)C(=O)c1cccc(C)c1` has a reported normalized growth of 0.998 (inactive)

----------
# protocol notes: chemical genetic growth profiling, strain panel (AID 1159580);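 note: tested at 20 µM; growth read once vehicle control cultures reached saturation at 30 °C; 1 = growth at the plate median or of vehicle wells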
# cond: S. cerevisiae deletion strains, growth OD, locus YDR150W, strain NUM1, hits give low values
Out of some 5,500 compounds screened, about 2,000 (36%) were called active. Not shown: some 18% with an inconclusive outcome. The list shows a part of the results.
// normalized growth lookup, one value per entry
Please respond with just the number, no unit label.

Clc1cccc(Cl)c1NC1=NCCN1
1.01
Nc1nc2ncc(=O)[nH]c2c(=O)[nH]1
0.997
C#CCCCCCCCCCCCC(=O)CC(O)COC(C)=O (stereo not drawn)
0.964

Entry C=C1CCC(=O)C(C)CCC2C1CC2(C)C (stereo not drawn) ; normalized growth = 1.02

The reported value for `CC(=O)OCC(COC(C)=O)OC(C)=O` in terms of normalized growth is 1.01

Record `Nc1ccc(N=Nc2ccccc2)c(N)n1` , field normalized growth: 1.01

Per the records, this compound ( C=C1CCC2C(CC2(C)C)C(=C)CC/C1=N\O (stereo not drawn) ) has normalized growth equal to 1.03

Entry `Nc1cc2c(cc1Cl)C(=O)NC2=O` , normalized growth reported as 0.929

The compound listed as `O=[N+]([O-])c1ccc(N2CCCN(C(=S)Nc3ccc(Cl)cc3Cl)CC2)nc1` has a reported normalized growth of 0.886

Entry `COC(=O)C1=C(C)NC(C)=C(C(=O)OC)C1c1ccc(-c2ccsc2C(=O)OC)o1` , normalized growth reported as 0.941

Lab note: `CCOC(=O)Nc1ccsc1C(=O)OC` gave normalized growth of 0.975

normalized growth recorded for this compound, `Clc1cccc(NC2=NCCS2)c1Cl` , is 0.984

The compound `COC(=O)c1sccc1NC(=O)C1CC1` showed normalized growth equal to 0.942
